ASSAY SYSTEM: ARID4B chromodomain (Homo sapiens, UniProt Q4LE39)
Sequence (Q4LE39 572-624 limits assumed): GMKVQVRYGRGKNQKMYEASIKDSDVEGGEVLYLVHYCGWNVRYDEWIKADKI
MEASURED QUANTITY: pKd
Give only the number. pKd is defined as minus log10 of concentration in molar units.

Q: Which pKd value belongs to COc1ccc(C(=O)NCCCN2CCOCC2)cc1OC ?
Ans: 5.46

Origin of measurements: patent US20250099405A1
